B1: library; numbered along this chain (parent)
chain: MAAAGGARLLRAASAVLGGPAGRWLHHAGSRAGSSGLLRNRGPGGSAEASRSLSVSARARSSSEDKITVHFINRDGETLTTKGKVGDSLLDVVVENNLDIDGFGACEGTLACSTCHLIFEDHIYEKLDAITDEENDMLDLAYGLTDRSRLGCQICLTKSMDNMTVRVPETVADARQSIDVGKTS

variants of: B1; experiment: scaled log2 fold change in cell abundance, elesclomol vs control (0 = silent mean, 1 = nonsense mean) (scaled log2 ratio); higher = higher viability under elesclomol (loss of FDX1 cuproptosis function); details: with HEK293T FDX1 KO; elesclomol 40 nM; glucose 10 mM; 11 days;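 also: variant abundance is its share of total variant reads in each endpoint sample, from next-generation sequencing of the integrated ORF PCR-amplified out of genomic DNA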
Quick rule: scaled log2 fold change of at least -0.3 means yes, below that means no.

Sample answers from the record:
INSERT INTO results (mutant_designation, qualitative_label) VALUES
  ('G18K', 'yes'),
  ('D146Q', 'no'),
  ('I118L', 'yes'),
  ('V92G', 'yes'),
  ('N73K', 'yes'),
  ('A4M', 'no'),
  ('R41C', 'yes'),
  ('I130E', 'no'),
  ('A172H', 'yes'),
  ('R149C', 'yes');

Q: Does `G83S` have a reported scaled log2 fold change of at least -0.3?
A: no

Q: Does `H70F` have a reported scaled log2 fold change of at least -0.3?
A: yes

Q: Does `T80D` have a reported scaled log2 fold change of at least -0.3?
A: yes

Q: Does `S88Q` have a reported scaled log2 fold change of at least -0.3?
A: no

Q: Does `M137F` have a reported scaled log2 fold change of at least -0.3?
A: no

Q: Does `S62A` have a reported scaled log2 fold change of at least -0.3?
A: no

Q: Does `G19Y` have a reported scaled log2 fold change of at least -0.3?
A: no

Q: Does `L110E` have a reported scaled log2 fold change of at least -0.3?
A: yes

Q: Does `N135D` have a reported scaled log2 fold change of at least -0.3?
A: yes

Q: Does `D128L` have a reported scaled log2 fold change of at least -0.3?
A: no

Q: Does `T164S` have a reported scaled log2 fold change of at least -0.3?
A: yes

Q: Does `A7L` have a reported scaled log2 fold change of at least -0.3?
A: yes

Q: Does `E169M` have a reported scaled log2 fold change of at least -0.3?
A: yes

Q: Does `S52L` have a reported scaled log2 fold change of at least -0.3?
A: no

Q: Does `K66Q` have a reported scaled log2 fold change of at least -0.3?
A: yes
